- System: Staphylococcus aureus Stau_29213
- assayDetails: MIC, broth microdilution (NCCLS)
- Assay type: cell-based
- conditionParameters: Table 7, Strain ID A (Table 6): S. aureus Stau_29213; in µg/mL (unit assumed)
I'd be grateful if you could share measured MIC for these entries.
Give bare numbers.

{"columns": ["compound", "MIC"],
 "data": [
  ["CCC1OC(=O)C(C)C(=O)C(C)C(OC2OC(C)CC(N(C)C)C2O)C(C)(OC)CC(C)C(=O)C(C)C2C1OC(=O)N2CCCCc1cc(C(F)(F)F)nc2ccccc12 (stereo not shown) [Compound 20p]", 0.4],
  ["CC[C@H]1OC(=O)[C@@](C)(F)C(=O)[C@H](C)[C@@H](OC2O[C@H](C)C[C@H](N(C)C)[C@H]2O)[C@@](C)(OC)C[C@@H](C)C(=O)[C@H](C)[C@H]2N(CCCC(C)(C)n3cnc4cccnc43)C(=O)O[C@]12CC (stereo partly shown)", 0.2],
  ["CCC1OC(=O)C(C)C(=O)C(C)C(OC2OC(C)CC(N(C)C)C2O)C(C)(OC)CC(C)C(=O)C(C)C2C1OC(=O)N2OCCOc1ccccc1 (stereo not shown) [Compound 20w]", 3.13],
  ["CC[C@H]1OC(=O)[C@@](C)(F)C(=O)[C@H](C)[C@@H](OC2O[C@H](C)C[C@H](N(C)C)[C@H]2O)[C@@](C)(OC)C[C@@H](C)C(=O)[C@H](C)[C@H]2N(CCCCc3ccc4ccccc4n3)C(=O)O[C@]12CC (stereo partly shown)", 0.2],
  ["CCC1OC(=O)C(C)C(=O)C(C)C(OC2OC(C)CC(N(C)C)C2O)C(C)(OC)CC(C)C(=O)C(C)C2C1OC(=O)N2CCCOc1cccc(-c2cccnc2)c1 (stereo not shown) [Compound 20s]", 0.78]
]}

Record MIC per entry; entries follow.
1. CCC1OC(=O)C(C)C(=O)C(C)C(OC2OC(C)CC(N(C)C)C2O)C(C)(OC)CC(C)C(=O)C(C)C2C1OC(=O)N2CCCOc1ccc(-c2cccnc2)cc1 (stereo not shown) [Compound 20r]
2. CCC1OC(=O)C(C)C(=O)C(C)C(OC2OC(C)CC(N(C)C)C2O)C(C)(OC)CC(C)C(=O)C(C)C2C1OC(=O)N2CCCCc1ncc(-c2ccc(F)cc2F)s1 (stereo not shown) [Compound 20u]
3. CCC1OC(=O)C(C)C(=O)C(C)C(OC2OC(C)CC(N(C)C)C2O)C(C)(OC)CC(C)C(=O)C(C)C2C1OC(=O)N2CCCCc1ncc(-c2cccc(N)c2)s1 (stereo not shown) [Compound 20v]
4. CCC1OC(=O)C(C)C(=O)C(C)C(OC2OC(C)CC(N(C)C)C2O)C(C)(OC)CC(C)C(=O)C(C)C2C1OC(=O)N2CCCCc1cc(C)nc2ccccc12 (stereo not shown) [Compound 20o]
5. CCC1OC(=O)C(C)C(=O)C(C)C(OC2OC(C)CC(N(C)C)C2O)C(C)(OC)CC(C)C(=O)C(C)C2C1OC(=O)N2CCCCc1cnc2ccccc2c1 (stereo not shown) [Compound 20n]

Found:
[3.13, 0.78, 0.4, 0.2, 0.4]
